test system: HL-1; assay: cardiomyocyte survival under oxidative or metabolic stress – cell-based, panel, H9c2 and HL-1, H2O2, 2-deoxyglucose, ATP luminescence, SAR follow-up (AID 651642); conditions: H9c2/HL-1 cardiomyocyte H2O2 oxidative damage, run 2, with H2O2
measured_attribute: pIC50
Give bare numbers, as −log10 of the molar value.

INSERT INTO assay_data (molecule_smiles, measured_attribute, result) VALUES
  ('COc1cc(-c2cc(C(=O)NCC(=O)Nc3ccc(C(C)=O)cc3)c3cc(F)ccc3n2)cc(OC)c1OC', 'pIC50', 4.98),
  ('CCOC(=O)c1cccc(NC(=O)CNC(=O)c2cc(-c3cc(OC)c(OC)c(OC)c3)nc3ccc(Br)cc23)c1', 'pIC50', 5.59),
  ('COc1cc(-c2cc(C(=O)Nc3cccc(C(=O)N4CCOCC4)c3)c3ccccc3n2)cc(OC)c1OC', 'pIC50', 4.78),
  ('COC(=O)CNC(=O)c1cccc(NC(=O)c2cc(-c3cc(OC)c(OC)c(OC)c3)nc3ccccc23)c1', 'pIC50', 5.46),
  ('COc1cccc(CNC(=O)CNC(=O)c2cc(-c3cc(OC)c(OC)c(OC)c3)nc3ccccc23)c1', 'pIC50', 4.88);

Okay, here is my list. What is pIC50 for each of these?
1. COc1cc(-c2cc(C(=O)Nc3cccc(C(=O)NC4CC4)c3)c3ccccc3n2)cc(OC)c1OC
2. COc1cc(-c2cc(C(=O)Nc3cccc(C(C)=O)c3)c3cc(Br)ccc3n2)cc(OC)c1OC
3. CCOC(=O)c1cccc(NC(=O)c2cc(-c3cc(OC)c(OC)c(OC)c3)nc3ccc(F)cc23)c1
4. CCOC(=O)c1cccc(NC(=O)CNC(=O)c2cc(-c3cc(OC)c(OC)c(OC)c3)nc3ccc(OC)cc23)c1
5. CCOC(=O)c1cccc(NC(=O)c2cc(-c3cc(OC)c(OC)c(OC)c3)nc3ccccc23)c1
6. COc1cc(-c2cc(C(=O)NCC(=O)Nc3cccc(C(C)=O)c3)c3cc(C)ccc3n2)cc(OC)c1OC

A)
1: 5.32; 2: 5.00; 3: 5.10; 4: 5.42; 5: 5.34; 6: 4.35

Dear colleague, could you please provide pIC50 for the molecules listed below?
1. COc1ccc2nc(-c3cc(OC)c(OC)c(OC)c3)cc(C(=O)NCC(=O)Nc3cccc(C(C)=O)c3)c2c1
2. COc1cc(-c2cc(C(=O)Nc3cccc(C(=O)Nc4ccccc4)c3)c3ccccc3n2)cc(OC)c1OC

A)
[5.16, 5.81]

* * *

test system: HL-1; assay: cardiomyocyte survival under oxidative or metabolic stress – cell-based, panel, H9c2 and HL-1, H2O2, 2-deoxyglucose, ATP luminescence, SAR follow-up (AID 651642); conditions: H9c2/HL-1 cardiomyocyte 2-deoxyglucose damage, run 1, with 2-deoxyglucose
pIC50: −log10 of the molar value.
Assign pIC50 to each entry below.

Some solved entries appear below for comparison.
INSERT INTO results (molecule, result) VALUES
  ('COc1cc(-c2cc(C(=O)Nc3cccc(C(=O)O)c3)c3ccccc3n2)cc(OC)c1OC', '< 4.10'),
  ('COc1ccc2c(c1OC)C(=O)N1c3ccccc3C(=O)N(Cc3ccc(C)cc3C)C21 (stereo not drawn)', '< 4.10');

// next item, pIC50 requested
Q) Give measured pIC50 for CCOC(=O)c1cccc(NC(=O)c2cc(-c3cc(OC)c(OC)c(OC)c3)nc3ccc(Cl)cc23)c1 (HL-1).
A) < 4.10
